target: NATA1Δ (Arabidopsis thaliana)
Sequence (Q9ZV05 19-228, stated change not applied): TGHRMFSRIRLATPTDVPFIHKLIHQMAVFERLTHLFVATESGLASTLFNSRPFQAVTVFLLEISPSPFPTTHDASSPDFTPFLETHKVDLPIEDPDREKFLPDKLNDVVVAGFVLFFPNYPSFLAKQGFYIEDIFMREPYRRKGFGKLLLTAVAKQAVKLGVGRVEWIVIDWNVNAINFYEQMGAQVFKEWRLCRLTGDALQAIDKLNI
pKd: −log10 of the molar value.
OBSERVABLE: pKd

Entry `CC(=O)SCCNC(=O)CCNC(=O)[C@H](O)C(C)(C)COP(=O)(O)OP(=O)(O)OC[C@H]1O[C@@H](n2cnc3c(N)ncnc32)[C@H](O)[C@@H]1OP(=O)(O)O` ; pKd = ~5.00

====

target: NATA2Δ (Arabidopsis thaliana); assay: isothermal titration calorimetry; format: binding
Sequence (Q9ZV06 30-236, stated change not applied): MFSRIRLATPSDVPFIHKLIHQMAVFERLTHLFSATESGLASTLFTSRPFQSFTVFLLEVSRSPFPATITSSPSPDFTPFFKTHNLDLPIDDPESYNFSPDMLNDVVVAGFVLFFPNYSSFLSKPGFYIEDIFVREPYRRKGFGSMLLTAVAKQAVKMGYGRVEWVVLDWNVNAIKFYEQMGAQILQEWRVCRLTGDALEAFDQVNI
OBSERVABLE: Kd

Entry CC(=O)SCCNC(=O)CCNC(=O)[C@H](O)C(C)(C)COP(=O)(O)OP(=O)(O)OC[C@H]1O[C@@H](n2cnc3c(N)ncnc32)[C@H](O)[C@@H]1OP(=O)(O)O [acCoA] ; Kd = ~10 µM
